pKi for UniProt:P35348 - collated from the literature.
Sequence (P35348 whole entry): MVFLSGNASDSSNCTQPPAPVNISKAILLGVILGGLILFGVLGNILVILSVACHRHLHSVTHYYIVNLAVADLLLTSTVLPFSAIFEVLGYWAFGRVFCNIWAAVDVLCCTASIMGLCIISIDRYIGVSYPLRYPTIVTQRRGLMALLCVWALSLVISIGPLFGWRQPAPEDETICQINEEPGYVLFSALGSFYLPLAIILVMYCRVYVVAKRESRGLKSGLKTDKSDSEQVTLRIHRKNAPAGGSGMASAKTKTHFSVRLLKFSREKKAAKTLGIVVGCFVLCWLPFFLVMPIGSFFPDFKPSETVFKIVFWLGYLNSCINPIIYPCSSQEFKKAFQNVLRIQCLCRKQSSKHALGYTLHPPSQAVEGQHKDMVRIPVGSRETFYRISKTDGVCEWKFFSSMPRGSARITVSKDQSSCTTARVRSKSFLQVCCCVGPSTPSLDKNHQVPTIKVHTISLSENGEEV
Answers are plain numbers, as −log10 of the molar value.

[[record]]
molecule = "O=C1CC2(CCCCC2)CC(=O)N1CCN1CCN(c2ccccc2Cl)CC1"
endpoint_value = 6.38

[[record]]
molecule = "CN1CCc2ccc3c4c2[C@H]1Cc1cccc(c1-4)[C@@H]3N"
endpoint_value = 6.43

[[record]]
molecule = "CO/C(O)=C1\\C(C)=NC(C)=C(C(=O)NCCN2CCC(c3ccccc3)(c3ccccc3)CC2)C1c1ccc([N+](=O)[O-])cc1 (centres undefined)"
endpoint_value = 8.06

[[record]]
molecule = "COc1ccccc1N1CCN(Cc2ccc(CO)s2)CC1"
endpoint_value = 6.69


Look at each molecule and report its pKi.
1. COc1ccccc1N1CCN(CCN2CCC3(CCCC3)CC2=O)CC1
2. CC(C)Oc1ccccc1N1CCN(CCCNC(=O)c2ccc3c(c2)C(=O)N(c2ccc(O)cc2)C3=O)CC1
3. O=C1CC2(CCCC2)CC(=O)N1CCN1CCN(c2ccc(F)cc2)CC1
4. CC(C)Oc1ccccc1N1CCN(CCCNC(=O)c2ccc3c(c2)C(=O)N(c2cccc(F)c2)C3=O)CC1
5. COc1ccc2ccccc2c1OCCNC[C@@H]1COc2ccccc2O1
6. COc1ccccc1OCCNCC1CSC(c2ccccc2)(c2ccccc2)O1 (racemic)
7. COc1cc2nc(N3CCN(C(=O)c4ccccc4)[C@H]4CCCC[C@H]43)nc(N)c2cc1OC
8. FC(F)(F)c1cccc(N2CCN(CCCCNc3nccc4ccccc34)CC2)c1

1: 7.26; 2: 9.70; 3: 6.21; 4: 9.39; 5: 8.34; 6: 7.68; 7: 8.38; 8: 7.17
